System: cancer pathways
Assay: Screening of cancer pathways in human cells (PCA and phospho-immunofluorescence)
Format: cell-based
Conditions: cancer pathway in which the drug was active; screened at 10 micromolar, HEK293 cells
From the text: We first screened compounds derived from the known pharmacopeia and from a selected natural product collection using two types of assays: (a) measurements of post-translational modifications of proteins; (b) measurements of protein-protein interactions. For the purpose of measuring post-translational modifications of proteins, we used immunofluorescence methods combined with phospho-specific antibodies. […]
MEASURED QUANTITY: Pathway Activity

// below: answered compounds
Form field: reported Pathway Activity of CC(CN1c2ccccc2Sc2ccccc21)N(C)C (stereo not shown)
proliferation

Query: Pathway Activity; subject: CCCSc1ccc2nc(NC(=O)OC)[nH]c2c1
invasion/metastasis

Look up Pathway Activity for this compound: CNCCCN1c2ccccc2CCc2ccccc21
proliferation

Would you kindly share the measured Pathway Activity for CN1C[C@H](CNC(=O)OCc2ccccc2)C[C@@H]2c3cccc4c3c(cn4C)C[C@H]21 ?
invasion/metastasis

Look up Pathway Activity for this compound: CN(C)CCCN1c2ccccc2Sc2ccccc21
proliferation

Others:
Endpoint output: Pathway Activity of CO[C@H]1[C@H](O)[C@H](O[C@H]2CC[C@@]3(C)[C@H](CC[C@@H]4[C@@H]3CC[C@]3(C)[C@@H](C5=CC(=O)OC5)CC[C@]43O)C2)O[C@@H](C)[C@@H]1O . Value?
invasion/metastasis

Reported Pathway Activity, compound CCCCCCCCNC(C)C(O)c1ccc(SC(C)C)cc1 (stereo not shown) : ____
invasion/metastasis

Which Pathway Activity value belongs to CN[C@H]1CC[C@@H](c2ccc(Cl)c(Cl)c2)c2ccccc21 ?
apoptosis

----------
system: LoVo cells; test: MTT proliferation assay, colon adenocarcinoma LoVo; type: cell-based; settings: Homo sapiens, Tumor Cell: Colon (LoVo), 120 hours, concentrations tested in microM
I'd appreciate it if you could supply pIC50 values for the items below.
Please keep in mind that pIC50 is minus log10 of the molar concentration; only the number is needed.

Looking for the measured pIC50 of COC(=O)[C@H]1[C@H]2C[C@H]3c4[nH]c5cc(OC)ccc5c4CCN3C[C@H]2C[C@@H](OC(=O)c2cc(OC)c(OC)c(OC)c2)[C@@H]1OC , can you help?
5.56

Could you tell me which pIC50 is on file for O=C(Nc1ccc([N+](=O)[O-])cc1Cl)c1cc(Cl)ccc1O [Niclosamide] ?
6.35

pIC50 lookup needed for CC(C)(C)c1ccc(C(O)CCCN2CCC(C(O)(c3ccccc3)c3ccccc3)CC2)cc1 (stereo not shown) , thanks.
6.00

Need pIC50 of CC1(C)CCC2=C(O1)c1ccccc1C(=O)C2=O , thanks.
5.85

----------
test system: U-87 MG cells; experiment: MTT proliferation assay, glioblastoma U-87 MG; assay type: cell-based; settings: Homo sapiens, Tumor Cell: Glioblastoma (U-87 MG), 120 hours, concentrations tested in microM
MEASURED QUANTITY: log10(IC50) (log10 of the value in nM)
Lab note - IC50 converted to log10 from values in nM.

// query log10(IC50) value for entry CC(C)(C)c1ccc(C(O)CCCN2CCC(C(O)(c3ccccc3)c3ccccc3)CC2)cc1 (centres unmarked)
2.58

# log10(IC50) lookup, item O=C(Nc1ccc([N+](=O)[O-])cc1Cl)c1cc(Cl)ccc1O [Niclosamide]
2.91

Consider the compound CC1(C)CCC2=C(O1)c1ccccc1C(=O)C2=O and give its measured log10(IC50).
2.93

Item under review: CC(C)c1c(C(=O)Nc2ccccc2)c(-c2ccccc2)c(-c2ccc(F)cc2)n1CC[C@@H](O)C[C@@H](O)CC(=O)O . Reported log10(IC50)?
3.66

What measured log10(IC50) goes with COC(=O)[C@H]1[C@H]2C[C@H]3c4[nH]c5cc(OC)ccc5c4CCN3C[C@H]2C[C@@H](OC(=O)c2cc(OC)c(OC)c(OC)c2)[C@@H]1OC ?
3.96
